The measured values listed here are drawn from ChEMBL document CHEMBL5442219.

- tgt: 5-hydroxytryptamine receptor 2C (Homo sapiens) (UniProt P28335)
- Sequence (whole entry): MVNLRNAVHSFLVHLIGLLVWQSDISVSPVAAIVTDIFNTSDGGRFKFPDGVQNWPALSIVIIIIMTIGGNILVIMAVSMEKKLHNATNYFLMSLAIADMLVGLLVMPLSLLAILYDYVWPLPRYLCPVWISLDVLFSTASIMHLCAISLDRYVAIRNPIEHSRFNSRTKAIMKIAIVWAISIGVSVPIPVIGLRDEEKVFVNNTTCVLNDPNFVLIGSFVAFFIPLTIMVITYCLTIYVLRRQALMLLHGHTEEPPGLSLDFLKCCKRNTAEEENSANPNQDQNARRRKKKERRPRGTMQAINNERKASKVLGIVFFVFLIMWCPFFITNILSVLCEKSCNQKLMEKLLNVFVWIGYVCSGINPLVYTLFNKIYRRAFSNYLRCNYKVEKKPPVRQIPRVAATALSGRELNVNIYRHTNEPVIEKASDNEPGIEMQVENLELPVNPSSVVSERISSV
- conditions used: Compound concentration 10 µM
- Description: PDSP Primary Binding target: HTR2C - Compounds are tested at 10 uM concentration, plate are incubated at room temperature in the dark for 90 minutes. Reaction are stopped by vacuum filtration onto 0.3% polyethyleneimine soaked filter mats using Filtermate harvester. Scintilation cocktail is then melted onto microwave-dried filters on a hot plate and the radio activity is counted in Microbia counter.
The label depends only on inhibition: yes if it is at least 20%, no if it is smaller.

**Query** Please indicate if the recorded inhibition for Clc1cccc(COc2cncc(N3CCNCC3)n2)c1 meets or exceeds 20%.
**Result** yes

**Query** Please indicate if the recorded inhibition for N#Cc1ccc(NC(=O)Nc2ccccc2Br)c2nn[nH]c12 meets or exceeds 20%.
**Result** yes

**Query** Please indicate if the recorded inhibition for Oc1ccc2c3c1O[C@H]1c4[nH]c5c(c4C[C@@]4(O)[C@@H](C2)N(CC2CC2)CC[C@]314)C[C@@]1(O)[C@H]2Cc3ccc(O)c4c3[C@@]1(CCN2CC1CC1)[C@H]5O4 meets or exceeds 20%.
**Result** no

**Query** Please indicate if the recorded inhibition for CCC(=O)NCC[C@@H]1CCc2ccc3c(c21)CCO3 meets or exceeds 20%.
**Result** no

**Query** Please indicate if the recorded inhibition for CCCCC#Cc1nc(NC)c2ncn([C@@H]3O[C@H](CO)[C@@H](O)[C@H]3O)c2n1 meets or exceeds 20%.
**Result** no

***
**Query** Please indicate if the recorded inhibition for C[C@@H](NCCCc1cccc(C(F)(F)F)c1)c1cccc2ccccc12 meets or exceeds 20%.
**Result** yes

**Query** Please indicate if the recorded inhibition for Cc1cccc([C@H](C)c2c[nH]cn2)c1C meets or exceeds 20%.
**Result** no

**Query** Please indicate if the recorded inhibition for COc1ccc(/C=C/CCCCOc2ccc(C(=O)c3cccc(C(=O)O)c3)cc2CCC(=O)O)cc1 meets or exceeds 20%.
**Result** no

**Query** Please indicate if the recorded inhibition for Cc1nc(-c2ccc(-c3ccc(C(=O)N4CCc5cc6c(cc54)C4(CCN(C)CC4)CO6)cc3)c(C)c2)no1 meets or exceeds 20%.
**Result** yes
